The reported numbers originate from PubChem BioAssay.

# protocol summary: thallium flux activation in parental CHO cells, counter-screen for KCNQ1 potentiator project (AID 493006);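 on activation: fluorescence ratio of max minus min over baseline after K+ and Tl+ depolarization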
# protocol conditions: parental CHO-K1 cells, FluxOR thallium flux, at 10 µM
The source made the active and inactive calls.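 How the source made its calls: active means duplicate-averaged activation above buffer control mean plus 5 SD of those controls; inactive means the rest.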
Outcome codes: active, inactive

compound_smiles=Cn1c(=O)n(CCc2ccccc2)c2ccccc21 qualitative_label=inactive
compound_smiles=Nc1nc(CCl)nc(Nc2ccc3ccccc3c2)n1 qualitative_label=inactive
compound_smiles=O=C(O)c1ccccc1NS(=O)(=O)c1cccc(-n2sc3ccccc3c2=O)c1 qualitative_label=active
compound_smiles=COc1ccccc1NC(=O)Cn1cnc2c(oc3nc4c(cc32)CCCC4)c1=O qualitative_label=inactive

----------
# protocol summary: thallium flux activation in parental CHO cells, counter-screen for KCNQ1 potentiator project (AID 493006);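 on activation: fluorescence ratio of max minus min over baseline after K+ and Tl+ depolarization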
# protocol conditions: parental CHO-K1 cells, FluxOR thallium flux, at 10 µM
Active and inactive are the calls of the source.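 The calls were made as follows: active = duplicate-averaged activation above buffer control mean plus 5 SD of those controls; inactive = the rest.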
Outcome codes: active, inactive

compound=CCOC(=O)CN1C(=O)N(CC)C(C)=C(C(=O)OC)[C@@H]1c1ccccc1 qualitative_label=inactive
compound="Cc1ccc(C)c(NC(=S)NNC(=O)c2csc3c2CCC(C)C3)c1 (configuration not stated)" qualitative_label=active
compound="CCOC(=O)C1=NN(C(=O)c2ccccc2)C(O)(c2ccc(C)cc2)C1 (configuration not stated)" qualitative_label=active
compound=C=CCn1c(O)c(N=NC(=S)Nc2ccccc2F)c2ccccc21 qualitative_label=active
compound=O=C(Nc1ccccc1Br)c1ccccc1-c1ccccc1 qualitative_label=inactive
compound=C=CCN(c1ccccc1)S(=O)(=O)c1cccc(C(=O)Nc2cccc(C)n2)c1 qualitative_label=active
compound=Cc1nn2c(NCc3ccccn3)cc(C(C)C)nc2c1-c1ccccc1 qualitative_label=inactive
compound="Clc1ccc(C(c2ccccc2)N2CCNCC2)cc1 (configuration not stated)" qualitative_label=inactive
compound=O=C(CCN1Cc2ccccc2C1)c1ccc2c(c1)OCCO2 qualitative_label=inactive
compound=C=CCNC(=S)NNC(=O)COc1c(Cl)cc(Cl)cc1Cl qualitative_label=inactive
compound=COC(=O)c1sccc1NC(=S)NCc1ccc(Cl)cc1 qualitative_label=active
compound=S=C(NCCc1ccccc1)N/N=C/C1CCCCC1 qualitative_label=inactive
compound="CC1(C)CC(=O)C2=C(C1)c1c(ccc3ccccc13)NC2c1cc([N+](=O)[O-])cc([N+](=O)[O-])c1O (configuration not stated)" qualitative_label=inactive
compound=COc1ccccc1CNCc1cccc(Oc2ccccc2)c1 qualitative_label=inactive
compound=Oc1ccc(N=Nc2ccc3c(c2)OCCO3)c2ncccc12 qualitative_label=active
compound="Cc1ccc(CCNC(=O)C2CC(c3cccc(F)c3)=NO2)cc1 (configuration not stated)" qualitative_label=inactive
compound=CCOc1cc(S(=O)(=O)Nc2ccc(Cl)cn2)ccc1Cl qualitative_label=inactive
compound="COC(=O)C1C(=O)c2c([nH]c(C(=O)OCCSC)c2C)CC1C (configuration not stated)" qualitative_label=inactive
compound=CSc1nc(-c2ccccc2)[nH]c(=S)c1C(C)=O qualitative_label=active
compound=CCOC(=O)N1CCC(N2C(=O)c3ccc(C(=O)NCCC(C)C)cc3C2=O)CC1 qualitative_label=inactive
compound=O=C(NC(=S)Nc1nc2ccccc2s1)c1ccco1 qualitative_label=active
compound=CCOC(=O)c1sc(NC(=O)c2ccncc2)nc1C qualitative_label=active
compound=CCCCCCCCN1[C@@H](CC(C)=O)c2cc(C(F)(F)F)ccc2S1(=O)=O qualitative_label=inactive
compound=S=c1[nH]nc(-c2ccco2)n1/N=C/c1ccc(Cl)cc1Cl qualitative_label=active
compound=C/C(=N\NC(=O)c1cc2ccccc2cc1O)c1ccccn1 qualitative_label=active
compound=CCC(=O)NC(=Nc1nc2ccccc2s1)NC(=O)CC qualitative_label=inactive
compound="CC12CCC(C(=O)N(CSC(=S)N/N=C\\c3ccccc3)C1=O)C2(C)C (configuration not stated)" qualitative_label=inactive
compound=O=C(NC(=S)Nc1ccccc1)c1cc(-c2ccccc2)nc2ccccc12 qualitative_label=active
compound=CCSc1nc(=S)cc(C)[nH]1 qualitative_label=active
compound=O=C(CN1CCN(Cc2ccc(F)cc2Cl)C1=O)NCCc1ccccc1 qualitative_label=inactive
compound=Fc1ccc(-c2csc(NC(=S)Nc3ccccc3)n2)cc1 qualitative_label=active
compound=CCOC(=O)C1CCN(C(=O)COc2cc(C)c(Br)c(C)c2)CC1 qualitative_label=inactive
compound="COc1ccc(C2NC(c3ccc(OC)c(OC)c3OC)C(C)C(=O)C2C)c(OC)c1OC (configuration not stated)" qualitative_label=inactive
compound="CC1Oc2ccccc2OC1(O)c1ccccn1 (configuration not stated)" qualitative_label=active
compound=O=C(c1ccco1)N1CCN=C1SCc1ccc(F)cc1 qualitative_label=inactive
compound=CCOC(=O)c1cnc(SCC(=O)Nc2nc(C)c(C)s2)nc1N qualitative_label=inactive
compound="Cc1ccc2c(c1)c(C)c(C)n2CC(O)CN1CCCCC1C (configuration not stated)" qualitative_label=inactive
